biological target: T1, 15-mer peptide LGIWGCSGKLICTTT (SEQ ID NO:1) (HIV, not fully specified; cysteine pairing not given here); test: indirect ELISA; 15-mer peptide coated 1 ug/ml in DTT; negative control well of this row (not explained)
T1 construct: also called U1731DB060-1; U173DB060-1
T1 peptide: LGIWGCSGKLICTTT
No end group written: not given here.
Entries and their measured ELISA OD (Neg. Cont.) follow.
Provide only the numeric value, understood in OD.

HIV-binding peptide #6 (antibody, human IgG1, kappa, V domains shown, Recombinant, fully human immunoglobulin; also called U1205DB020-6) VH: QVQLQESGGGVVQPGRSLRLSCAASGFTFSSYAIHWVRQAPGKGLEWVAVISYDGSNRYYADSVKGRFTISRDNSKNTLYLQMNSLRPEDTAVYYCARDRFSAVASTPTYHNYFYMDVWGKGTTVTVSS VL: DIQMTQSPSSLSASVGDRVTITCQASQDISNYLAWYQQKPGQAPRLLIYDASNLETGVPSRFSGSGSGTDFTLTISSLQPEDLATYYCQQYDNTPYTFGQGTKLEIKR    0.087
HIV-binding peptide #7 (antibody, human IgG1, kappa, V domains shown, also called U1205DB020-7) VH: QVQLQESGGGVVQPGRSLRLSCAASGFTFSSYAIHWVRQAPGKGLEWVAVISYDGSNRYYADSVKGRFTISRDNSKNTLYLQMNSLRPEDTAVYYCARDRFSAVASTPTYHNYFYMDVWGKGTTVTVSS VL: DIQMTQSPSSLSASVGDRVTITCQASQDVSNYLAWYQQKPGQAPRLLIYDASNLETGVPSRFSGSGSGTDFTLTISSLQPEDLATYYCQQYDNLPYTFGQGTKLEIKR    0.088

Task: Please look at this binder and report its ELISA OD (Neg. Cont.): HIV-binding peptide #9Q (antibody, human IgG1, V domains shown) VH: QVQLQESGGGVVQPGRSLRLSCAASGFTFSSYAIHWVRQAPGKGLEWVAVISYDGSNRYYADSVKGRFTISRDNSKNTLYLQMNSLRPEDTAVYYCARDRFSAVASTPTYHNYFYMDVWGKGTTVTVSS
Output: 0.105
